Where these numbers come from: patent US20150315188A1

- assay.target: Human adrenergic α2B receptor (Homo sapiens, UniProt P18089)
- Sequence (P18089 whole entry): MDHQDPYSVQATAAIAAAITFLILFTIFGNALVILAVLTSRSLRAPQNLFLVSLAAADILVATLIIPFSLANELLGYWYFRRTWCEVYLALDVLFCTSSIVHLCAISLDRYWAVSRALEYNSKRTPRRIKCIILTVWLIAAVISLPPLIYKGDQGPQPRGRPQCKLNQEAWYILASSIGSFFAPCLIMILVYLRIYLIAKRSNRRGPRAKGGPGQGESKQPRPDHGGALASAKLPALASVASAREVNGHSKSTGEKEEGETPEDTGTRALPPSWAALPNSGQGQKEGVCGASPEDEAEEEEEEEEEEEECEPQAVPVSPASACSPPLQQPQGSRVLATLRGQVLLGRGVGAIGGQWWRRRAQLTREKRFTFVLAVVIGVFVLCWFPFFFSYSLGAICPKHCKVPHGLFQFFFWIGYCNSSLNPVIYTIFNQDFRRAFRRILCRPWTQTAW
- method.notes: Radioligand binding, adrenergic α2B (Protocol Group B)
- Set-up: purchased Milipore (Millipore)
- condition.label: 0.1 μM compound; Protocol Group B; 0.1 µM
observation.type: Percentage inhibition of ligand binding, Adrenergic α2B (0.1 μM) (%)

Worked cases, Percentage inhibition of ligand binding, Adrenergic α2B (0.1 μM) given:
[
  {
    "molecule": "Cc1ccc2c(c1)c1c(n2CC(C)(O)c2cncc(F)c2)CCN(C)C1 (single isomer, unassigned) [46b]",
    "assay.target": "Human adrenergic α2B receptor (Homo sapiens, UniProt P18089)",
    "recorded.number": 37
  },
  {
    "molecule": "CC(O)(Cn1c2c(c3cc(Cl)cc(F)c31)C1CCCN1CC2)c1ccncc1 (single isomer, unassigned) [52c]",
    "assay.target": "Human adrenergic α2B receptor (Homo sapiens, UniProt P18089)",
    "recorded.number": 10
  }
]

A. Cc1ccc2c(c1)c1c(n2CC(O)c2ccccn2)CC2CCCN2C1 (single isomer, unassigned) [45b]
B. Cc1cc(C)c2c(c1)c1c(n2CC(C)(O)c2ccncc2)CCN2CCCC12 (single isomer, unassigned) [19b]
C. Cc1ccc2c(c1)c1c(n2CC(C)(O)c2cccnc2)CCN(C)C1CO (single isomer, unassigned) [16a]
Exercise: # rank by Percentage inhibition of ligand binding, Adrenergic α2B (0.1 μM), ascending (min first) Thanks in advance for listing the labels in the requested order.
Key: C, A, B
